Assay: qHTS of pediatric cancer cell lines to identify multiple opportunities for drug repurposing: Confirmatory screen for MG 63 (6-TG R) cells (AID 1347119); further: nearly all actives have a fitted effect of over 55% in size; further: potency means the concentration at half of the fitted maximal effect
Details: MG-63 (6-TG resistant) osteosarcoma viability; series mostly up to 45.9 µM
Results filed as inconclusive are left out. Activity calls are given as the source filed them. The call rests on the fitted dose curve; in most records, active means well fitted cell-killing curve with a large enough effect; inconclusive means small, poorly fitted or top-dose-only effect, or effect the other way; inactive means no such curve, though single readings can be large or run the other way.

| entry smiles | Potency |
| --- | --- |
| CCS(=O)(=O)Nc1ccc2[nH]c(O)c(C(=Nc3ccc(CN4CCCCC4)cc3)c3ccccc3)c2c1 | 329 nM (active) |
| COc1ccc(C=Cc2cc(OC)c(OC)c(OC)c2)cc1NC(=O)[C@H](N)CO | 46.5 nM (active) |
| Nc1nc2c(c(=O)[nH]1)N(C=O)[C@H](CNc1ccc(C(=O)N[C@@H](CCC(=O)O)C(=O)O)cc1)CN2 | inactive |
| CCc1cc(C(C)=NOCc2ccc(C3CCCCC3)c(C(F)(F)F)c2)ccc1CN1CC(C(=O)O)C1 | inactive |

----------
Experiment: qHTS of pediatric cancer cell lines to identify multiple opportunities for drug repurposing: Primary screen for RD cells (AID 1347104); further: nearly all actives have a fitted effect of over 55% in size
Conditions: RD rhabdomyosarcoma viability, CellTiter-Glo luminescence, 48 h; series mostly up to 46 µM
Records with an inconclusive call do not appear. Activity calls are given as the source filed them. Calls follow the shape of the dose curve; as a rule, active = well fitted cell-killing curve with a large enough effect; inconclusive = small, poorly fitted or top-dose-only effect; inactive = flat fitted curve, though single readings scatter.
Just give me one of these, please: active, inactive

Look over these answered cases.
| molecule | label |
| --- | --- |
| CC(C)(N)c1ccc(-c2nc3ccccc3nc2-c2ccccc2)cc1 | active |
| OC[C@@H](O)[C@@H](O)[C@H](O)[C@@H](O)CO | inactive |
| Nc1ccn(C[C@@H](CO)OCP(=O)(O)O)c(=O)n1 | inactive |
| COc1cc(C)c(Sc2cnc(NC(=O)c3ccc(CNC(C)C(C)(C)C)cc3)s2)cc1C(=O)N1CCN(C(C)=O)CC1 (stereo unspecified) | active |
| O=C(C=CC#Cc1cccc(NS(=O)(=O)c2ccccc2)c1)NO | active |
| O=C1NC(=O)C(=Cc2ccc3nccc(-c4ccncc4)c3c2)S1 | active |
| CS[C@H]1SC[C@@H]2C(=O)N(C)[C@H](C(C)C)C(=O)OC[C@H](NC(=O)c3cnc4ccccc4n3)C(=O)N[C@H](C)C(=O)N(C)[C@@H]1C(=O)N(C)[C@H](C(C)C)C(=O)OC[C@H](NC(=O)c1cnc3ccccc3n1)C(=O)N[C@H](C)C(=O)N2C | active |
| Cc1cnn(C)c1C(=O)Nc1cc(Nc2ccc3c(C=Cc4ccccn4)n[nH]c3c2)ccc1F | active |

Exam item: Per the records of this test, what outcome belongs to CCOc1cc2c(c(F)c1OCC)C(=N)N(CC(=O)c1cc(N3CCOCC3)c(OC)c(C(C)(C)C)c1)C2 ?
Marked response: active

Exam item: Per the records of this test, what outcome belongs to O=C(NNC(=O)c1ccc(CNS(=O)(=O)c2ccc(F)c(Cl)c2)cc1)c1ccccc1 ?
Marked response: inactive

Exam item: Per the records of this test, what outcome belongs to O=C1NC(O)CCN1[C@@H]1O[C@H](CO)[C@H](O)[C@H]1O (stereo partly specified) ?
Marked response: inactive

Exam item: Per the records of this test, what outcome belongs to CC[C@H]1OC(=O)[C@H](C)[C@@H](O[C@H]2C[C@@](C)(OC)[C@@H](O)[C@H](C)O2)[C@H](C)[C@@H](O[C@@H]2O[C@H](C)C[C@H](N(C)C)[C@@H]2O)[C@](C)(OC)C[C@@H](C)C(=O)[C@H](C)[C@@H](O)[C@]1(C)O ?
Marked response: inactive
